# Assay procedure: Agilent InfinityLab Poroshell 120 SB-C18, 100 × 2.1 mm, 2.7 µm, 40 °C, 0.2 mL/min, estimated dead time 1.1 min; A: water + 0.1% formic acid; B: acetonitrile; gradient (min/%B) 0/2 15/95 16/95
# Details: stereoisomer not certain
Recorded endpoint: LC retention time (min)

O=C(O)C1CCCN1 (stereo unspecified) = 1.41
NCC(=O)NC1OC(COP(=O)(O)O)C(O)C1O (stereo unspecified) = 13.5
NC(=O)C1=CN(C2OC(COP(=O)(O)OP(=O)(O)OCC3OC(n4cnc5c(N)ncnc54)C(OP(=O)(O)O)C3O)C(O)C2O)C=CC1 (stereo unspecified) = 8.58
NCCCCNCCCN = 1.45

1 = O=C(O)c1cc(=O)[nH]c(=O)n1C1OC(COP(=O)(O)O)C(O)C1O (stereo unspecified)
2 = O=C(O)C1CC(O)C=N1 (stereo unspecified)
Identify the entry with the smaller LC retention time: 1 or 2 . Identify your selection by its label.
2

a = Nc1ccn(C2CC(O)C(COP(=O)(O)OP(=O)(O)OP(=O)(O)O)O2)c(=O)n1 (stereo unspecified)
b = CCCCCCCCCCCCCCCC(=O)OC(CC(=O)[O-])C[N+](C)(C)C (stereo unspecified)
Return label of the item with the larger LC retention time. Candidates: a , b . Identify your selection by its label.
b

1 = CC(=O)NC1C(OP(=O)(O)OP(=O)(O)OCC2OC(n3ccc(=O)[nH]c3=O)C(O)C2O)OC(CO)C(O)C1O (stereo unspecified)
2 = CC(O)C=O (stereo unspecified)
3 = CCCCCCCCCCCCCC=CC(O)C(N)CO (stereo unspecified)
# ascending order, key=LC retention time List the labels, following the order given in the request.
2, 1, 3
(2: 1.48 min, 1: 5.47 min, 3: 15.1 min)

P = Nc1ncnc2c1ncn2C1OC(COP(=O)(O)OP(=O)(O)O)C(O)C1O (stereo unspecified)
Q = CCCCCCCCCC(O)CC(=O)O (stereo unspecified)
Return label of the item with the larger LC retention time. Candidates: P , Q . Identify your selection by its label.
Q

A = CCC(C)C(N)C(=O)O (stereo unspecified)
B = CC(=O)SCCNC(=O)CCNC(=O)C(O)C(C)(C)COP(=O)(O)OP(=O)(O)OCC1OC(n2cnc3c(N)ncnc32)C(O)C1OP(=O)(O)O (stereo unspecified)
C = CC(=O)NC1C(O)OC(COP(=O)(O)O)C(O)C1O (stereo unspecified)
D = O=C(O)CC(O)C(=O)O (stereo unspecified)
# ascending order, key=LC retention time List the labels, following the order given in the request.
C, A, D, B
(C: 1.37 min, A: 2.94 min, D: 4.45 min, B: 11.7 min)

1 = O=c1[nH]cnc2nc[nH]c12
2 = OCC1OC(O)C(O)C(O)C1O (stereo unspecified)
3 = O=P(O)(O)OCC1OC(O)C(O)C(O)C1O (stereo unspecified)
4 = NC(=O)c1ncn(C2OC(COP(=O)(O)O)C(O)C2O)c1N (stereo unspecified)
5 = Nc1ccn(C2CC(O)C(CO)O2)c(=O)n1 (stereo unspecified)
Arrange the 5 molecules from largest to smallest LC retention time. List the labels, following the order given in the request.
2, 4, 5, 1, 3

A = NC(=O)c1cccnc1
B = O=c1ccn(C2OC(COP(=O)(O)OP(=O)(O)OP(=O)(O)O)C(O)C2O)c(=O)[nH]1 (stereo unspecified)
Return label of the item with the larger LC retention time. Candidates: A , B . Identify your selection by its label.
B

1 = CC(O)C(=O)O (stereo unspecified)
2 = CCCC(O)CC(=O)O (stereo unspecified)
Identify the entry with the smaller LC retention time: 1 or 2 . Identify your selection by its label.
1
(1: 3.37 min, 2: 12.4 min)
